Assay Procedure: protease stability score; higher = more stable; yeast display proteolysis, trypsin and chymotrypsin;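 note: log10 excess protease needed over predicted unfolded state with 0 meaning unfolded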
Overview of recorded protease stability score for various sequences

- Residues: "DEHDEKIVQTFLTALRTGDEEELQKNMDPNVSVHIGDQEVNGREEIARQLKKEQDEMRVDIRRYHISAHNGRVEVRIKFTAEVNGKPNRFTVVYDFVLHNGHIEKMHVKMSREDKKKKKQ"
  protease stability score: -0.189
- Residues: "DTENEKLQRRFMKALKTNDPHRAREMADENAKVQVGDKRIHGMQTVVEDLEREWREQRNDVKVRSVSNEGNKVNMDATMKVEHNGKPKHFNVVYRATVHNGRIHELRVERDG"
  protease stability score: 0.088
- Residues: "DDDKKAKNWMERMLHIFREGDEDSYKNNFDENAEINIGDKTYHGRDRVQRLFSEIKHNVDHLKIQFQDFSTHNGRWVLIFEYSRTHNGHTEQNVIVVNMEQHNGKVVVKSMREK"
  protease stability score: 0.636
- Residues: "DHEANQIAREFVKAIRTNNPTRASQNMDPNVRVTVGDHVFHGREEVKTWIHRLNKEARIDIHINTIESQGDNAKVVFKYRVEVDGRPDSRNVIVDVHAHNGKMKEVVYRVDEDEQHELKK"
  protease stability score: 0.368
- Residues: "DEEEFKKHAEQVIRILEHGDPDQMKKNADPNAKIEVGDRTYHGHDRMREFVKRLRDRVDHMSVETWSAHNGRIHIHFRVDINGKDVRVVMQLTVDNGKIKRLRVKSG"
  protease stability score: 0.914
- Residues: "DDRHVQKRLKTFIHILRTGDPQKISNLVDPNAEIQVGDKEYHGRHEIRKLIEELKTRVDHIDVVDMKAEGDKARANLNVNVNGHDIRFVVQLVWDNGHVKSVRIKYRNERVERQEKG"
  protease stability score: 1.61
- Residues: "DDRLNEMARRFITLLTTGDPKEAHKYMDENARFQIGDERYHGMHEFERLLTERQKTSRVQINSLEVQHEPNRANIHADVENERNGQPRRFDVIIELHAHNGRIKEITYEYRQ"
  protease stability score: -0.009
- Residues: "DNKDQARRLLNELRKAMKQNDEDRMRQLMDPNARATYGDKTVHGREELAERIIKEVKRADHVDLQVDDIKTQGNKLTVEVTIRIDVNGKTINTRYVLYAEVSNGRFNIRQIHQQ"
  protease stability score: 0.544
- Residues: "DEEDRRKAKEAAERNDWKHFSDQMDEDVRVLVGDKRFHGREEAKQFVQKVEDRADTQSVDSVDVQGNQVDLDMKLNINGNDVRAQFEFYFHNGRIKEIKVTFTDPREERQFKELIK"
  protease stability score: 1.25
- Residues: "DHEAVKLMERLIEALNTGDPDQLRRLADKDVRWRYGDKDVHGRESVVTQLKKRLEQSRFKVTDVDIKAQGDNVTADYRVIFEHNGKPDDVTVKVEAKVHNGRIKMMKIQTDK"
  protease stability score: 0.623
- Residues: "DQQKEAEKFARDMRRALDTGDERDVANLFPPDAKLRYGDKSFHGMDDIFKWVVTVLRQADHIHFQVRSVRDQGDKADIEFELRYDVNGQDRSRIFHAEVRHNGDNVQVEMNVEK"
  protease stability score: 0.326
- Residues: "DEEKVKLASEIWKAFDRNNPDRVEELIDPNARFQYGDKKYHGMEQAKNHIKKILDDANIHIKSISMTDHNGKVRAEVEFVRNHNGKPQTDRVEMSAEFTNGRVTHFEVTEVP"
  protease stability score: 0.871
- Residues: "DHRAEEAFRRWEEALKTGDPDQAKEQVDPNARFEYGDESIRGMDNVQKWLRTQMEKQRIDVKVKDVKTRPGHVEISAHVVWEHNGTPNSATFVQQNTATGDDVKHVKVQEHK"
  protease stability score: -0.27
- Residues: "DEESLAKEFIKHVNDNADTGNPDDMAELFDPNARIEVGDKKYDGHKDITKLNEELNREADHIKYTINSVKRDGDFVRLDIEVRMDVNGKDVNHRYRANVAVTNGRLVVRSLTSS"
  protease stability score: 0.891
- Residues: "DDEAVRAMKRWMDALKTGDPDHLKNNIDPNANIDVGDKRVHGREQIMTMVEKELHEIKITITSINFEDHGDKAVVIINYIRDHNGRPQSNRATLEAEVHNGRIKELKMKDDK"
  protease stability score: 0.468
- Residues: "DETNVKNAEEWLRALQDNNSEQLRKLMDKDVRVEIGDDVIKGREDVVTNLIRKARELRFRIKVDKIEDDNGKVVVHAEATFTHNGKPDRVEVELVFSLDNGKIKEVVVKTDG"
  protease stability score: 1.69
- Residues: "DEDAVRRVKDMIRNLKSGNPDDAARYADPNARFDIGDWHIDGRKQLVKKLRDITRHMRYKFEMRSVDVTGNKLKFKATAHVSVNGRPITYHMTASIIVHNGHVTHVDQQLPEELLKRIEQ"
  protease stability score: 0.785
- Residues: "DQEDKDSLEQILHTGDWVDAAKSADPNAQAEVGDKTWTGREQVEKVMKRLRDDIDHQEVKSVEIDGDKMHVDLTAHINGERMRITIEVKYSNGHLVKVVVKATDKEVEKHLKKLLD"
  protease stability score: 1.54
- Residues: "DDQHQQKFAEEFNKNLEKGDFHRIAQMADENVRVRYGDKSVNGREHMSQFMKELRDRVDHMEIKDFHASNGKITITFVVNVNGKNITLHISIRVSNGRIHEVSLDPDQLKSLES"
  protease stability score: 2
- Residues: "DESAKRKFEEFLEQIRHNNPDELKKMMDKDVRVNIGDKEINGRDQVKNELERFAKEQRFRIQVKHMSVSNGHLHAKVTVESTHNGSPDSDKFQVQANFQGDKFKEMQWDKDS"
  protease stability score: -0.189
- Residues: "DKEDWTRLTNVLEDNNEHQFQDMLDKDVKIDVGDKRIHGRERAKHFLRKYEREVDEITVYSINVSGDNVKVDRVAKHNGQSVRFVMVFRAHNGKVQEMRIEFRDERQKEIWNQLEQ"
  protease stability score: 0.231
- Residues: "DEKEEAEKFFEQYKHALHRGDPDQMANLADKDVRAEIGDKVVHGRDQLMTYVKTLKEHYDDISLKLKDVQVSGDKAQLHAVLTLNHNGKNDKIHIVIRMVRQGDELVMTSITYR"
  protease stability score: 0.935

* * *

Assay Procedure: protease stability score; higher = more stable; yeast display proteolysis, trypsin and chymotrypsin;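 note: log10 excess protease needed over predicted unfolded state with 0 meaning unfolded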

- Residues: "DEEAQEVVEDMLRAIDKGDEDQIRRNVDKDAKVKVGNHELHGREQIAKFLSKERNEIEQSFQYESVTVDGDKIKFQFEMSRNVNGKPMRVSAQAEADAHNGKIRHFKVNVDTDVERRIDS"
  protease stability score: -0.165
- Residues: "DDEEHRRILERFVRAFQTGDEDDLRNLADPNAKAQVGDKQVHGMDKFATHIRELVDRIDHIDVKSLTASGNTLHARIKFRVNGHDVTVVMRIQVHNGKLKRIEIDPEVVRQIEG"
  protease stability score: 1.22
- Residues: "DKEALRVFEKMLQAQRTGNPQEVRKQVDENARFQVGDKTIQGRERFAEDVDRQRKNMRLDYKHIDNKDHNGQAQADAKVRVNVNGRPIEHSAQFHFSAHNGKLVQLHVQMDEDVRRQIEK"
  protease stability score: -0.233
- Residues: "DERHIHELVKNMQTNNFEEIKKQLDENVRVVVGDTVYHGREQASKALEDMKRMADRIRYTRVDFKGNKVRIDVVMNINGHNLKMVITVVVQNGRIKELVFTARNDEVKTRLDHAIR"
  protease stability score: 1.13
- Residues: "DDDDLKRITEFLKNEQKGNSEELRKLADPNATFQIGDKTIKGRDKFANEAKKRRDEMHFQYKSVHMRDHNGVAVFSVTWILDHNGKPEENTFTLQAKLTNGKIKMLRLQSRK"
  protease stability score: -0.012
- Residues: "DQREIVTKILRDFVKAFKTGDQDKYEKLVDKDVEYNIGDKTYHGREEAKKLFRELVKQVDHYSVHYKSISVRNGRAKVEAIQYYKHDGRTYHNKVSYTFRIQGDKIRMQDATFS"
  protease stability score: 0.602
- Residues: "DEEELEKINQLIKTNDFQQLRQDADPNVQVEYGDKSYHGRENLTKNMREFEKMVDHVQLKDYRVKGEKLEADMVATVNGREIRFTLSMNVHNGKIKQISLKYRNEDQKRRMEEALN"
  protease stability score: 0.922
- Residues: "DERDNKVVEEYIKALQRGDPKQARRQADPNARFQVGDTELHGMDDVARKIERETKQWRLEIHHVKVDVKGDKMTIRLDFVVEVNGHPKRMNLTVEAHAHNGKIKEMVMHVDPKQEEELKS"
  protease stability score: 0.188
- Residues: "DEEDLRHLIELMEKGDFSRIADQADEDVRVDIGDKRIHGREQVLTYAEKLSKNIDHVKIQHYHVEGNKLVVDMVIVVNGKDVRATLTAEISNGRLKHMELHATNEEQQTRLKEIIS"
  protease stability score: 0.871
- Residues: "DEEELKHINRELVEVAKTGNPDEWRKLMRKDVTMHVGDKTYHGREKVREHAKTLRDRIDHINVRSVSATGDKVVLNFEAKVNGQTRTYQFQARVHNGRIVSAHINER"
  protease stability score: 0.006
- Residues: "DENAVRVVKELWKALNHGNPDRVQQLADKDARVQVGDKDVHGREKMAKLVDTLKKEIRMDIKVHSISASNGRAKIDFKADEENNGKPQTYEATANVTIHNGKVVSMRVNKDQ"
  protease stability score: -0.428

Cited source for all entries: the NTF2 design screens of Basanta et al. (2020)
